Please respond with reported pSmad-3, IC50 for every item in the list.
- System name: T1, TGFβ2 (R&D Systems)
- T1 sequence (P61812 303-414, species assumed, looked up): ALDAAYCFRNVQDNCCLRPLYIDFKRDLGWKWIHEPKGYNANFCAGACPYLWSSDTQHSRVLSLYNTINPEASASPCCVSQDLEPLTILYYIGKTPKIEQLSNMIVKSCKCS
- Measurement protocol: cell-based or functional assay
The response must be a number in nM with no trailing unit.

Record affinity matured HcLb 188 (antibody, V domains shown, full IgG; constant regions not restated) VH: EVQLVQSGAEVKKPGASVKVSCKTSGYTFITYWMNWVRQAPGAGLDWMGQIFPAWGSTNYNEMFEGRVTLTADTSTSTAYMELSSLRAGDIAVYYCARGYGNYALDAMDYWGQGTLVTVSS VL: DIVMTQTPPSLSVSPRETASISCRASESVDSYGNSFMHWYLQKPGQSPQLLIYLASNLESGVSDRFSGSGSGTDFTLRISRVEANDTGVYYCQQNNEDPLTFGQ . Reported pSmad-3, IC50: 2.29

Record affinity matured HcLb 239 (antibody, V domains shown, full IgG; also called canHcLb/55SW/100DY/31/TK + canHcLb/237ND/242TS) VH: EVQLVQSGAEVKKPGASVKVSCKTSGYTFIKYWMNWVRQAPGAGLDWMGQIFPAWGSTNYNEMFEGRVTLTADTSTSTAYMELSSLRAGDIAVYYCARGYGNYALDAMDYWGQGTLVTVSS VL: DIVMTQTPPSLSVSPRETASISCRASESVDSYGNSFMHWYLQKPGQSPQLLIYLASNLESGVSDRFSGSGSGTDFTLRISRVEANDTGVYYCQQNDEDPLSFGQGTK . Reported pSmad-3, IC50: 5.42

Record affinity matured HcLb 73 (antibody, V domains shown) VH: EVQLVQSGAEVKKPGASVKVSCKTSGYTFITYWMNWVRQAPGAGLDWMGQIFPASGSTNYNEMFEGRVTLTADTSTSTAYMELSSLRAGDIAVYYCARGYGNYALDAMDYWGQGTLVTVSS VL: DIVMTQTPPSLSVSPRETASISCRASESVDSYGNSFMHWYLQKPGQSPQLLIYLASNLESGVSDRFSGSGSGTDFTLRISRVEANDTGVYYCQQNDEDPLTFGQGTK . Reported pSmad-3, IC50: 8.42
